- System: Tov-21-G
- Assay info: Primary qHTS to identify gynecologic anti-cancer compounds using libraries of approved drugs and bioactive compounds (AID 1345084); also: nearly all actives have a fitted effect of over 55% in size
- Test conditions: Gynecologic cancer cell panel viability, ATPlite luminescence, 48 h; series mostly up to 57.5 µM
Results filed as inconclusive are left out. The source made the active and inactive calls. Calls follow the shape of the dose curve; as a rule, active = well fitted cell-killing curve with a large enough effect; inconclusive = small, poorly fitted or top-dose-only effect, or effect the other way; inactive = flat fitted curve, though single readings scatter.
Outcome codes: active, inactive

{"columns": ["Compound", "Target of assay", "Class assignment"],
 "data": [
  ["CC(Cc1ccc2c(c1)OCO2)NO (centres undefined)", "Tov-21-G", "inactive"],
  ["c1cc2c(c(N3CCNCC3)c1)OCCO2", "Tov-21-G", "inactive"],
  ["C[C@]12CC[C@H](O)CC1=CC[C@@H]1[C@@H]2CC[C@]2(C)C(=O)CC[C@@H]12", "Tov-21-G", "inactive"],
  ["O=c1[nH]c2cc(Cl)ccc2n1C1CCNCC1", "Tov-21-G", "inactive"],
  ["ClCc1cccc(Cl)c1", "Tov-21-G", "inactive"],
  ["CC1N=C(N)OC1c1ccccc1 (centres undefined)", "Tov-21-G", "inactive"],
  ["COP(=O)(OC)OC=C(Cl)Cl", "Tov-21-G", "inactive"],
  ["CN1C(=O)CN=C(c2ccccc2)c2cc(Cl)ccc21", "Tov-21-G", "inactive"],
  ["CCc1cc(OC)c(C[C@H](C)N)cc1OC", "Tov-21-G", "inactive"],
  ["N#Cc1nn(-c2c(Cl)cc(C(F)(F)F)cc2Cl)c(N)c1S(=O)C(F)(F)F (centres undefined)", "Tov-21-G", "inactive"],
  ["NC1(c2ccccc2)CCCCC1", "Tov-21-G", "inactive"],
  ["CC[C@H](O)C(C[C@H](C)N(C)C)(c1ccccc1)c1ccccc1", "Tov-21-G", "inactive"],
  ["CCC1(CC)C(=O)NC(=O)NC1=O", "Tov-21-G", "inactive"],
  ["CC[C@H]1C[C@H]2[C@@H]3CCC4=CC(=O)CC[C@@H]4[C@H]3CC[C@]2(C)[C@H]1O", "Tov-21-G", "inactive"],
  ["CC(Cc1ccccc1)NCCCCl (centres undefined)", "Tov-21-G", "inactive"],
  ["COCC(=O)N(c1c(C)cccc1C)C(C)C(=O)OC (centres undefined)", "Tov-21-G", "inactive"],
  ["CCN(Cc1ccc(Cl)nc1)/C(=C/[N+](=O)[O-])NC", "Tov-21-G", "inactive"],
  ["ClC1=C(Cl)C2(Cl)C(CBr)CC1(Cl)C2(Cl)Cl (centres undefined)", "Tov-21-G", "inactive"],
  ["CCOC(C(=O)OCCN(C)C)(c1ccccc1)c1ccccc1", "Tov-21-G", "inactive"],
  ["CNC(=O)Oc1cccc2ccccc12", "Tov-21-G", "inactive"],
  ["CCS(=O)(=O)C(C)(C)S(=O)(=O)CC", "Tov-21-G", "inactive"],
  ["O=C(N[C@H]1N=C(c2ccccc2F)c2cccc3c2N(CC3)C1=O)c1cc2ccccc2[nH]1", "Tov-21-G", "inactive"],
  ["C[N+]1(CCC(C(N)=O)(c2ccccc2)c2ccccc2)CCCCC1", "Tov-21-G", "inactive"],
  ["CCC(=O)C(CCN(C)C)(c1ccccc1)c1ccccc1", "Tov-21-G", "inactive"],
  ["CC(C)=C[C@@H]1[C@@H](C(=O)OCc2coc(Cc3ccccc3)c2)C1(C)C", "Tov-21-G", "inactive"],
  ["CCC(=O)O[C@H]1CC[C@H]2[C@@H]3CCC4=CC(=O)CC[C@]4(C)[C@H]3CC[C@]12C", "Tov-21-G", "inactive"],
  ["CCCCCCCCC(=O)NCc1ccc(O)c(OC)c1", "Tov-21-G", "inactive"],
  ["CCN1CCCC1CNC(=O)C(O)(c1ccccc1)c1ccccc1 (centres undefined)", "Tov-21-G", "inactive"],
  ["COc1ccc(OC)c(CC(C)N)c1 (centres undefined)", "Tov-21-G", "inactive"],
  ["CCCC[N+]1(C)[C@@H]2CC(OC(=O)[C@H](CO)c3ccccc3)C[C@H]1[C@@H]1O[C@@H]12 (some centres undefined)", "Tov-21-G", "inactive"],
  ["CCOC(=O)c1cncn1C(C)c1ccccc1 (centres undefined)", "Tov-21-G", "inactive"],
  ["CC(C)(C)OC(=O)c1ncn2c1[C@@H]1CCCN1C(=O)c1c(Br)cccc1-2", "Tov-21-G", "inactive"],
  ["C[C@@H]1C[C@@H]([C@H](O)CC2CC(=O)NC(=O)C2)C(=O)[C@@H](C)C1", "Tov-21-G", "active"],
  ["COc1cc(C[C@@H](C)N)c(OC)cc1Br", "Tov-21-G", "inactive"],
  ["CNC(C)Cc1ccc2c(c1)OCO2 (centres undefined)", "Tov-21-G", "inactive"],
  ["CCOP(=S)(OCC)O/N=C(\\C#N)c1ccccc1", "Tov-21-G", "inactive"],
  ["COP(=S)(OC)Oc1ccc(Sc2ccc(OP(=S)(OC)OC)cc2)cc1", "Tov-21-G", "inactive"],
  ["O=C(O)Cc1ccccc1", "Tov-21-G", "inactive"],
  ["CNC(=O)NC(O)C(Cl)(Cl)Cl (centres undefined)", "Tov-21-G", "inactive"],
  ["O=C(CBr)Nc1ccc(Cl)cc1C(=O)c1ccccc1F", "Tov-21-G", "inactive"],
  ["CCC(OC(C)=O)C(CC(C)NC)(c1ccccc1)c1ccccc1 (centres undefined)", "Tov-21-G", "inactive"],
  ["CCO[C@H]1O[C@@H]2OC3(C)CC[C@H]4[C@H](C)CC[C@@H]([C@H]1C)[C@@]24OO3", "Tov-21-G", "inactive"],
  ["CCOC(=O)c1ncn2c1CN(C)C(=O)c1c(I)cccc1-2", "Tov-21-G", "inactive"],
  ["Sc1ccccc1Cl", "Tov-21-G", "inactive"],
  ["C=CCOC(Cn1ccnc1)c1ccc(Cl)cc1Cl (centres undefined)", "Tov-21-G", "inactive"],
  ["C[C@H]1C(=O)O[C@@H]2CCN3CC=C(COC(=O)[C@](C)(O)[C@]1(C)O)[C@H]23", "Tov-21-G", "inactive"],
  ["CC1Sc2c(C(=O)O)c(=O)c3cc(F)c(N4CCNCC4)cc3n21 (centres undefined)", "Tov-21-G", "inactive"],
  ["COP(=S)(OC)Oc1ccc(S(N)(=O)=O)cc1", "Tov-21-G", "inactive"],
  ["CCCC(C)C1(CC)C(=O)N=C(S)NC1=O (centres undefined)", "Tov-21-G", "inactive"]
]}
